Each recorded value in this set is attributed to ChEMBL document CHEMBL5303304.

test system: U2OS; test: Incucyte cell viability with U2OS; format: toxicity, cell-based; conditions: human, 18 h, 10 µM, compound concentration 10 uM, replicate number 1; further: unitless GR value; below 1 slowed growth and below 0 cell loss
Would you mind telling me the reported Growth Rate of each entry?
Provide a numeric answer; units are not to be included.

Reported Growth Rate ( "O=C1CCCc2[nH]c(-c3ccnc(NCC4CC4)c3)c(Nc3ccccc3)c21" ) = 0.72

Reported Growth Rate of "C=C[C@H]1C[N@@]2CC[C@H]1C[C@@H]2[C@@H](O)c1ccnc2ccc(OC)cc12" : 0.93

molecule "CC(=O)Nc1c(F)cc(C(=O)N[C@H]2CC[C@H](O)CC2)cc1O[C@@H](C)c1ccccc1" , Growth Rate observed: 0.79

Growth Rate reported for this molecule "Cc1[nH]c2c(N3CCCCC3)c(-c3ccccc3)nn2c(=O)c1-c1ccc(O)cc1" : 0.85

// field: Growth Rate; key: "Cc1csc(S(=O)(=O)N(CC(C)C)c2cc3c(cc2OCc2ccc(C(=O)O)cc2)CCC3)n1" ; value = 0.99

----------
tested on: U2OS; experiment: Incucyte cell viability with U2OS; type: toxicity, cell-based; conditions: human, 12 h, 10 µM, compound concentration 10 uM, replicate number 1; further: unitless GR value; below 1 slowed growth and below 0 cell loss
Cut-off 0.8 on Growth Rate: below means class 1, at or above means class 0.

Dear reviewer, please state whether "O=C(Cc1ccccc1)Nc1nnc(N2CC[C@@H]3[C@H]2CN3c2cccnn2)s1" has Growth Rate strictly beneath 0.8. class 1

Determine whether this compound shows Growth Rate lower than 0.8 (ties excluded): Cl.NCC(O)c1ccc(O)cc1 (centres undefined) [OCTOPAMINE HYDROCHLORIDE] class 0

Take the compound "COC[C@@H](C)N[C@H]1CC[C@H](Nc2cc(-c3cccc(NCC4(C#N)CCOCC4)n3)c(Cl)cn2)CC1" and say whether its Growth Rate is less than 0.8. class 0

Quick check: does "O=C(O)[C@]1(Cc2cccc(Nc3nccs3)n2)CC[C@@H](Oc2cccc(Cl)c2F)CC1" have Growth Rate under 0.8? class 1

Here's an entry: "Cc1nsc(Nc2cnc(C(F)(F)F)cn2)c1C(=O)Nc1ccc(O[C@H]2CCCN(CC(F)(F)F)C2)nc1" . Is its Growth Rate below 0.8? class 1

Report whether reported Growth Rate is lower than 0.8 (strictly) for "CCN1CCN(Cc2ccc(NC(=O)c3ccc(C)c(Oc4ccnc5[nH]ccc45)c3)cc2C(F)(F)F)CC1.Cl.Cl.Cl.O" class 0

Consider the compound "Cc1cc(Cn2c(N3CC4(CNC4)C3)nc3c(N4CCN(C)CC4)cc(Cl)cc32)cc(C)c1F" . Is its Growth Rate strictly less than 0.8? class 1

Lab log: compare recorded Growth Rate with 0.8; is it strictly lower for "O=C(O)c1cc(-c2ccccc2)ccc1O" ? class 1

Strictly below 0.8: is that where Growth Rate of "Cn1cnc(Cn2ccc3ccc(CNCc4[nH]c5ccccc5c4[C@H]4NC(=O)c5ccc(O)cc54)cc32)c1" sits? class 0

----------
Give Growth Rate for every item shown.
system: Fibroblast; assay: Incucyte cell viability with human fibroblast; format: toxicity, cell-based; settings: 0 h, 10 µM, compound concentration 10 uM, replicate number 2; further: unitless GR value; below 1 slowed growth and below 0 cell loss
Number only, please.

Record for "CC(=O)Nc1nc(C)c(S(=O)(=O)Nc2ccc(C(O)(C(F)(F)F)C(F)(F)F)cc2)s1" under target or system Fibroblast: Growth Rate reported as 0.65

// Growth Rate (Fibroblast) for "O=C(NCc1cccc(O)c1)Nc1nc(-c2ccncc2)cs1" = -0.55

Bench note, Fibroblast: entry "COc1ccccc1N1CCN(c2ncnc3c2cnn3-c2ccccc2)CC1" , its Growth Rate = 0

Entry "CCN(CC)C/C=C/C(=O)Nc1cc2c(Nc3ccc(F)c(Cl)c3)ncnc2cc1OCC1CC1" , tested on Fibroblast, has a reported Growth Rate of -0.83

Response field Growth Rate (Fibroblast) for item "Cc1cc(CN(CC(=O)Nc2ccc(Cl)cc2Cl)C2CCCCC2)ccc1OCC(=O)O" : -0.93

Test item COc1cc(N)c(Cl)cc1C(=O)NC1CN2CCC1CC2.Cl (stereo not given) ; Fibroblast; reported Growth Rate was -0.73

Kindly note: Fibroblast, "CC#CC(=O)N1CCN(c2nc(-c3ccc(Oc4ccccc4)cc3)c(C(N)=O)s2)CC1" , Growth Rate value reported: 0.75

Summary line: "Cc1c(N2CCCC2)nc2ccc(Br)cc2c1C(=O)NC[C@H](CCC(=O)O)c1ccccc1Cl.Cl.O" , Fibroblast, reported Growth Rate = -0.4

Simply: "CN1CCN(C(=O)c2ccc3cc2OCCOCCNc2ccn4ncc-3c4n2)CC1" , Fibroblast, Growth Rate = 0.92

Summary: "CN(C)c1ncc2cc(-c3ccc(-c4ncccc4F)cc3Cl)c(=O)n(C[C@H]3OC[C@H](N)CO3)c2n1" , Fibroblast, Growth Rate = -0.89

----------
Task for the reader: assign each of the following compounds its reported Growth Rate.
tested on: U2OS; assay: Incucyte cell viability with U2OS; assay type: toxicity, cell-based; conditions: human, 18 h, 10 µM, compound concentration 10 uM, replicate number 2; further: unitless GR value; below 1 slowed growth and below 0 cell loss

So for "CS(=O)(=O)c1ccc(-c2cnc(N)c(C(=O)Nc3ccccc3)n2)cc1" , the logged Growth Rate turned out to be 0.93

Data point: "Cc1csc(S(=O)(=O)N(CC(C)C)c2cc3c(cc2OCc2ccc(C(=O)O)cc2)CCC3)n1" ; Growth Rate = 0.83

// sample "COC(=O)c1sccc1S(=O)(=O)Nc1ccc(Nc2ccccc2)cc1OC" , its Growth Rate was 0.9

Entry "Oc1c(CN2CCCC2)cc(COCc2ccccc2)c2cccnc12" , Growth Rate reported as 0.56

GET /value?item= CC(Oc1cc(-c2cnn(C3CCNCC3)c2)cnc1N)c1c(Cl)ccc(F)c1Cl (centres undefined) &field=Growth Rate returns 0.45

Notebook: "COc1ccc(CC[C@@H](OC(=O)[C@@H]2CCCCN2C(=O)[C@H](c2cc(OC)c(OC)c(OC)c2)C2CCCCC2)c2cccc(OCCN3CCOCC3)c2)cc1OC" , Growth Rate read as 0.78

Entry "O=C(Cc1ccccc1[N+](=O)[O-])Nc1ccc(-c2ccc(C(O)(C(F)(F)F)C(F)(F)F)cc2F)cc1" ; Growth Rate = 0.73

For reference, reported Growth Rate for "COc1cc(CN(CCN)C(=O)N[C@@H](C)c2ccccc2)ccc1OCc1ccccc1.Cl" stands at 0.92

Growth Rate measured on "CC(C)(O)c1coc(S(=O)(=O)NC(=O)Nc2c3c(cc4c2CCC4)CCC3)c1" = 0.99

----------
Record form. Attribute: Growth Rate. Fill in for each entry.
test system: Fibroblast; assay: Incucyte cell viability with human fibroblast; format: toxicity, cell-based; conditions: 18 h, 10 µM, compound concentration 10 uM, replicate number 2; further: unitless GR value; below 1 slowed growth and below 0 cell loss
I'd appreciate a reply containing only the number, no unit.

// Growth Rate value for "Nc1ncnc2c1c(COc1cccc(Cl)c1)nn2C1CCOCC1" : 0.74

"Clc1cccc(Nc2nccc(NCCCN3CCOCC3)n2)c1" yielded Growth Rate of 0.57

Given item Cc1c(NC(=O)COc2ccc(Cl)cc2C(=O)c2cc(F)cc(C(F)(F)F)c2)ccc(C(=O)O)c1F [BI 2540] , the value recorded as its Growth Rate is 0.78

Just so you know, measured Growth Rate for "COc1cc(-c2cc3ncccc3c(O[C@H](C)[C@H]3CNC(=O)C3)n2)cc(OC)c1OC.Cl" came out at 0.86

Entry Cc1c[nH]c(-c2cnc(NCCNc3ccc(C#N)cn3)nc2-c2ccc(Cl)cc2Cl)n1 [LADUVIGLUSIB] , Growth Rate reported as -0.3

Given item "N[C@@H]1CCCC[C@H]1Oc1ccc2ncc(-c3cc4ccccc4o3)n2n1" , the value recorded as its Growth Rate is -0.65

Measured Growth Rate, "CN[C@@H](C)C(=O)N[C@H](C(=O)N1CCC[C@H]1C(=O)N[C@H]1c2ccccc2C[C@H]1OCC#CC#CCO[C@@H]1Cc2ccccc2[C@@H]1NC(=O)[C@@H]1CCCN1C(=O)[C@@H](NC(=O)[C@H](C)NC)C1CCCCC1)C1CCCCC1" : 0.57

For Cc1cc(C)c(NC(=O)C2CC3CCC2C3)c(C)c1 (stereo not drawn) the compound record lists Growth Rate as 0.75

----------
test system: U2OS; assay: Incucyte cell viability with U2OS; type: toxicity, cell-based; details: human, 6 h, 10 µM, compound concentration 10 uM, replicate number 1; further: unitless GR value; below 1 slowed growth and below 0 cell loss
Exercise: state measured Growth Rate for each of the compounds provided.

"COC(=O)c1sccc1S(=O)(=O)Nc1ccc(Nc2ccccc2)cc1OC" yielded Growth Rate of 0.61

Reported Growth Rate for "Cc1cc(Cn2c(N3CC4(CNC4)C3)nc3c(N4CCN(C)CC4)cc(Cl)cc32)cc(C)c1F" was -0.98

Growth Rate for "CC1(C)CC(=O)c2c(SCCO)sc(-c3nccs3)c2C1" is 0.66

Per the records, this compound ( "N=C(N)NCCC[C@@H](NC(=O)C(c1ccccc1)c1ccccc1)C(=O)NCc1ccc(CNC(N)=O)cc1.O=C(O)C(F)(F)F" ) has Growth Rate equal to 0.44

Value of measured Growth Rate for the entry Cc1ccc(NS(=O)(=O)c2ccc3c(c2)C2C=CCC2C(c2ccc(C(=O)O)cc2)N3)cc1C (centres undefined) : 0.79

Looking up CC(C)(C)C1CCc2c(sc(NC(=O)c3ccco3)c2C(=O)O)C1 (centres undefined) , I found its Growth Rate recorded as -0.02

Short answer for "CCS(=O)(=O)Nc1cccc(Oc2cncc(Nc3ccc(I)cc3F)c2C(N)=O)c1" : Growth Rate was 0.71

Consider O=C(N[C@H]1CCCCC/C=C\C2C[C@@]2(C(=O)O)NC(=O)[C@@H]2C[C@@H](Oc3ccncc3)CN2C1=O)OC1CCCC1 (some centres undefined) . Its measured Growth Rate is 0.77

response.value for "CCN(c1ccccc1)c1cc(NC)[n+](C)c(C)n1.[Cl-]" (field: Growth Rate) = 0.41
